# experimental.details: NCI Yeast Anticancer Drug Screen. Data for the CLN2oe strain (AID 163)
# assay.context: S. cerevisiae CLN2oe strain, at 11.0 µM
The panel holds about 79,000 compounds, 15% with a hit somewhere; the sample as a whole holds those more often. Activity calls are given as the source filed them. Cut-off read from the data, not from the text of the source: active = growth inhibition above about 70%; inactive = the rest.
Possible outcomes: true = active, false = inactive

compound | qualitative.label
CC(=O)CC[N+](C)(C)C | false
S=C1NC2=C(CSC/C2=C\c2ccc(Cl)cc2)C(c2ccc(Cl)cc2)N1 (stereo unspecified) | false
c1ccc(C2=NNC3c4ccccc4-c4ccccc4N3C2)cc1 (stereo unspecified) | false
COc1ccc(C(=O)OCCc2ccccc2)cc1 | false
CC(C)(C(=O)NN)c1ccccc1 | false
Cc1ccnc(NS(=O)(=O)c2ccc(Nc3c4ccccc4nc4ccccc34)cc2)n1 | false
Clc1ccc(C(c2ccc(Cl)cc2)N2CCNCC2)cc1 | false
Cc1[nH]nc(C(F)(F)F)c1N=NN(C)C | false
CN(C)CCC(=O)c1c[nH]c2ccccc12 | false
COc1ccc(/C=C2\S/C(=N/Nc3nc(-c4ccccc4)cs3)NC2=O)cc1OC | true
CC[C@]1(O)C[C@H]2CN(CCc3c([nH]c4ccccc34)[C@@](C(=O)OC)(c3cc4c(cc3OC)N(C)[C@H]3[C@@](O)(C(=O)OC)[C@H](OC(C)=O)[C@]5(CC)C=CCN6CC[C@]43[C@@H]65)C2)C1 | false
O=C1OC(c2ccc(Cl)cc2)Sc2ccccc21 (stereo unspecified) | false
CCOc1ccc2ccc3cccnc3c2n1 | false
CCOC(=O)/C(O)=C(/C=N/C(=S)Nc1c(CC)cccc1CC)C(=O)OCC | false
OC(c1ccc(Br)cc1)(c1cccs1)C1CC1 (stereo unspecified) | false
[Cl][Pt+2][Cl].[NH-]CC1(C[NH-])CCCCC1 | false
CC(O)CN1C(=O)c2cccc3cc([N+](=O)[O-])cc(c23)C1=O (stereo unspecified) | false
CN(C)c1ccc(/C=C/c2ccnc3ccc4ccccc4c23)cc1 | false
O=C1C=CC(=O)N1c1ccc(Br)cc1Cl | true
CN(C)/N=N/c1nc[nH]c1C(N)=O | false
O=Cn1c2ccccc2c2ccccc21 | false
Cc1cc(N(CCOS(C)(=O)=O)CCOS(C)(=O)=O)ccc1C=O | false
BrC/C=C/C[P+](c1ccccc1)(c1ccccc1)c1ccccc1 | true
Cc1ccc(C(C)C)c(C(=C2C=CC(=[N+](C)C)C=C2)c2c(C(C)C)ccc(C)c2O)c1O | true
N#C/C(=C1C=C/C(=N\O)C(Cl)=C\1)c1ccccc1 | false
CN(C)CCNC(=O)c1cccc2nc3c4ccccc4c4ccccc4c3nc12 | false
COc1ccc2cc(CN3CCC(C4CCN(Cc5ccc6cc(OC)ccc6c5)CC4)CC3)ccc2c1 | false
Cc1cnc(/C=N\NC(N)=S)c2cccc(N)c12 | false
O=C1OC(/C=C/c2ccccc2)Sc2ccccc21 (stereo unspecified) | false
O=C1C=CC(=Nc2ccc3c(c2)Cc2cc(Cl)ccc2-3)O1 | false
Cc1ccc2c(/C=C/c3ccc(N(C)C)cc3)ccnc2c1C | false
O=C1c2ccccc2C(=O)C1C(c1ccc(F)cc1)C1C(=O)c2ccccc2C1=O | false
O=C(CCC(=O)c1ccc(O)cc1)Oc1ccc(O)cc1 | false
C=Cc1c(C)c(O)cc2c1-c1ccc(O)c(C)c1CC2 | false
COc1ccc(/C(=N/O)c2ccccc2C2=Nc3ccccc3C(NCc3ccccc3)O2)cc1C (stereo unspecified) | false
O=C1c2ccc(O)cc2C(=O)c2c(O)ccc(O)c21 | true
COc1ccc(C(=O)NCCN(C)C)c2nc3ccccc3cc12 | false
O=C1c2ccccc2-c2ccc(NC(=O)C3CCCCC3C(=O)O)cc21 (stereo unspecified) | false
C[Si](C)(C)Cc1ccccc1C(=O)O | false
CCCCCCC(CCl)c1sc(-c2csc(CCNC(=O)OC(C)(C)C)n2)nc1C(=O)OC (stereo unspecified) | false
Oc1ccc(Br)cc1C=Nc1cccc(C(F)(F)F)c1 | false
CCCC#CCOC(=O)c1cc([N+](=O)[O-])cc([N+](=O)[O-])c1 | true
COc1cc(NCCCCCNC(C)C)c2ncccc2c1Cl | false
CN(NC(=O)/C(=C/C=C/c1ccccc1)NC(=O)c1ccccc1)C1=C(Cl)C(=O)[N+](c2ccccc2)=CC1 | false
CCN(CC)c1ccc(N=Nc2cc(S(=O)(=O)O)ccc2O)c(O)c1 | false
Nc1nc(Nc2ccccc2)nc(Nc2ccccc2)n1 | false
